Tested on: human colorectal carcinoma (HCT-116)
Experiment: MTT cytotoxicity assay, HCT-116
Type: cell-based
Details: 48 h, mean ± SD
Method: The cells of human liver carcinoma (HepG2), human breast adenocarcinoma (MCF-7), human colorectal carcinoma (HCT-116), and human lung carcinoma (A549) were purchased from the American Type Culture Collection (Rockville, MD). All cells were maintained in a Dulbecco’s modified Eagle’s medium (DMEM), which was supplemented with 10% of heat-inactivated fetal bovine serum (FBS) and 100 U/mL penicillin and streptomycin each. The cells were grown at 37 °C in a humidified atmosphere of 5% CO2. […]
// returns Not satisfied unless IC50 is strictly below 40 µM, in which case Satisfied

(Q) Quick check: does Cc1ccc(NC(=O)c2c(Nc3ccccc3)n[nH]c2N=Cc2c[nH]c3ccccc23)cc1 [7b] have IC50 under 40 µM?
(A) Satisfied

(Q) Lab log: compare recorded IC50 with 40 µM; is it strictly lower for CCN1C(=O)C(=Nc2[nH]nc(Nc3ccc(OC)cc3)c2C(=O)Nc2ccccc2)c2ccccc21 [5i] ?
(A) Not satisfied

(Q) Threshold test, IC50 < 40 µM: CN1C(=O)C(=Nc2[nH]nc(Nc3ccccc3)c2C(=O)Nc2ccccc2)c2ccccc21 [5a]
(A) Satisfied
